Origin of the recorded values: ChEMBL document CHEMBL1128693

- procedureDetails: Ratio of ED50 in microtubule assembly in presence of paclitaxel to only compound
- Format: functional

smilesRepr	Ratio
CC(=O)O[C@@]12CO[C@@H]1C[C@H](O)[C@@]1(C)C(=O)[C@H](O)C3=C(C)[C@@H](OC(=O)[C@H](O)[C@@H](/N=C(/S)NC(C)(C)C)C(C)(C)C)C[C@@](O)([C@@H](OC(=O)c4ccccc4)[C@H]21)C3(C)C	3.6
CCCCCCOC(=O)N[C@H]([C@@H](O)C(=O)O[C@H]1C[C@@]2(O)[C@@H](OC(=O)c3ccccc3)[C@@H]3[C@]4(OC(C)=O)CO[C@@H]4C[C@H](O)[C@@]3(C)C(=O)[C@H](O)C(=C1C)C2(C)C)C(C)(C)C	2.3
CC(=O)O[C@@]12CO[C@@H]1C[C@H](O)[C@@]1(C)C(=O)[C@H](O)C3=C(C)[C@@H](OC(=O)[C@H](O)[C@@H](NC(=O)Oc4ccccc4)C(C)(C)C)C[C@@](O)([C@@H](OC(=O)c4ccccc4)[C@H]21)C3(C)C	1.4
CC(=O)O[C@@]12CO[C@@H]1C[C@H](O)[C@@]1(C)C(=O)[C@H](O)C3=C(C)[C@@H](OC(=O)[C@H](O)[C@@H](NC(=O)C(C)(C)C)C(C)(C)C)C[C@@](O)([C@@H](OC(=O)c4ccccc4)[C@H]21)C3(C)C	1.3
CC(=O)O[C@@]12CO[C@@H]1C[C@H](O)[C@@]1(C)C(=O)[C@H](O)C3=C(C)[C@@H](OC(=O)[C@H](O)[C@@H](NC(=O)OC(C)(C)C)c4ccccc4)C[C@@](O)([C@@H](OC(=O)c4ccccc4)[C@H]21)C3(C)C.O.O.O	0.45
